The reported measurements were obtained from PubChem BioAssay (NCI).

Test system: MALME-3M melanoma
experimentDescription: NCI-60 one-dose screen, 48 h (100 = growth as untreated, 0 = no growth, -100 = all killed)
settings: 10 µM unless noted
About 83,000 compounds went through this panel and 20% of them were active in at least one assay; those are over-represented in the sample as a whole.
assayReadout: growth (%)
Respond numerically; units are % and should not be typed.

Query: Fill in: growth of C#CC[C@@H]1C[C@]2(C)[C@H]3CC=C4[C@H]5[C@@H](C)[C@H](C)CC[C@]5(C(=O)NCCCCN)CC[C@@]4(C)[C@]3(C)CC[C@H]2C(C)(C)[C@H]1OC(C)=O is ___
Reply: 98.9

Query: Follow-up entry: Cc1cc(C)c(C#N)c(SCC(=O)c2sc3c(C#N)c(C)cc(C)[n+]3c2[O-])n1
Reply: 17.5

Query: Follow-up entry: COc1ccc2[nH]c(C(=O)OCc3ccc4c(Br)cc(Br)c(O)c4n3)cc2c1
Reply: -79.6

Query: Follow-up entry: Oc1ccc(CCCCCCc2ccc(O)cc2)cc1
Reply: 92.8

Query: Follow-up entry: O=C1OC(c2ccc(-c3ccccc3)cc2)=C/C1=C/c1c(Cl)cccc1Cl
Reply: 64

Query: Follow-up entry: C#CC[C@@H]1C[C@]2(C)[C@H]3CC[C@@H]4[C@H]5C(C(=C)C)CC[C@]5(C(=O)NCCN(CCN)CCN)CC[C@@]4(C)[C@]3(C)CC[C@H]2C(C)(C)[C@H]1OC(C)=O (stereo not given in full)
Reply: 85.7

Query: Follow-up entry: c1ccc2c(c1)cnc1ccccc12
Reply: 127

Query: Follow-up entry: O=C1/C(=C\c2cccn2Cc2ccc(F)cc2)c2ccccc2N1c1c(Cl)cccc1Cl
Reply: 87.6

Query: Follow-up entry: COc1ccc(OC)c(Nc2nc(-c3c(C)nc4sccn34)cs2)c1
Reply: 88.9

Query: Follow-up entry: CCOC(=O)c1ccccc1SC(C[N+](=O)[O-])c1ccccc1 (stereo not given)
Reply: 98

Query: Follow-up entry: Cc1cccc(C(=O)O)n1
Reply: 111

Query: Follow-up entry: CN1CCN(Cc2ccc(NC(=O)c3cncc(C#Cc4ncc5ccccn45)c3)cc2C(F)(F)F)CC1
Reply: -21.4

Query: Follow-up entry: O=C(NNC(=S)Nc1ccccc1)c1ccc(Nc2ncnc3c2cnn3-c2cccc(Br)c2)cc1
Reply: 101

Query: Follow-up entry: COc1cc(NC(C)CCCN)c2ncccc2c1Sc1ccc(Cl)cc1 (stereo not given)
Reply: 82.4

Query: Follow-up entry: CCCc1n(Cc2ccc3ccccc3c2)c2ccccc2[n+]1Cc1ccc2ccccc2c1
Reply: -63

Query: Follow-up entry: Nc1nonc1-c1nc2ccccc2n1Cc1ccc(F)cc1
Reply: 46.2

Query: Follow-up entry: Nc1c(C(=O)c2ccc(Br)cc2)sc2nc3c(cc12)CCCC3
Reply: 82.6

Query: Follow-up entry: CCCC(CCC)NCC(O)c1cc(-c2ccc(C(F)(F)F)cc2)nc(C(F)(F)F)c1 (stereo not given)
Reply: -63.7

Query: Follow-up entry: C/C(=N\NC(=S)Nc1ccccc1)c1ccccn1
Reply: 31.3

Query: Follow-up entry: c1ccc(C(CC2=NCCCN2)c2ccccc2)cc1
Reply: 93.2

Query: Follow-up entry: N#Cc1c(NN)n(C2OC(CO)C(O)C2O)c2ncnc(N)c12 (stereo not given)
Reply: -9.07

Query: Follow-up entry: COc1c(B(O)O)cccc1-c1nc2ccc3[nH]ncc3c2c2c1CCCC2
Reply: 82.6

Query: Follow-up entry: Cc1ccccc1CNc1ncnc2[nH]ncc12
Reply: 114

Query: Follow-up entry: CN(C)CCOc1nc2c3cccnc3cc(-c3cccc(Cl)c3)c2c2ncccc12
Reply: -90.4

Query: Follow-up entry: COc1ccc2[nH]c(C(=O)OCc3ccc4cccc(O)c4n3)cc2c1
Reply: -76.2

Query: Follow-up entry: CCC1CCc2nc3sc(C(=O)Nc4cccc(F)c4)c(N)c3cc2C1 (stereo not given)
Reply: 34.8

Query: Follow-up entry: CN(C)CCOc1nc2c3ccncc3cc(-c3cccc(Cl)c3)c2c2cnccc12
Reply: 40.1

Query: Follow-up entry: CC[C@H](Nc1nc(N)nc(C2CC2)c1C#N)c1nc2cccc(NCc3ccc(C(=O)NO)cc3)c2c(=O)n1-c1ccccc1
Reply: -2.35

Query: Follow-up entry: Oc1ccc(Nc2ncnc3c2sc2ncccc23)cc1
Reply: 60.6

Query: Follow-up entry: C=C(CN1CC=CCC1)[C@@H]1CC[C@]2(C(=O)OC)CC[C@]3(C)[C@H](CC[C@@H]4[C@@]5(C)CC[C@H](OC(C)=O)C(C)(C)[C@@H]5CC[C@]43C)[C@@H]12
Reply: 92.9

Query: Follow-up entry: O=c1c2sc3ncc(Cl)cc3c2nnn1-c1cccc(Cl)c1
Reply: 75.3

Query: Follow-up entry: CC[C@H](Nc1nc(C)nc(N)c1C#N)c1nc2cccc(NCc3ccc(C(=O)NO)cc3)c2c(=O)n1-c1ccccc1
Reply: 2.94

Query: Follow-up entry: COc1ccccc1NC(=O)OCC12COCN1COC2
Reply: 103

Query: Follow-up entry: CC1CCN(Cc2ccc(NC(=O)c3cc4ccc5cccnc5c4[nH]3)cc2)CC1
Reply: 10.2

Query: Follow-up entry: CNC(=O)c1cc(Oc2ccc(NC(=O)c3nc(S(C)(=O)=O)n(C)c3-c3ccc(F)cc3)cc2)ccn1
Reply: 77.5

Query: Follow-up entry: CCCCNCCC(O)c1cc2ccc(C(F)(F)F)cc2c2cc(C(F)(F)F)ccc12 (stereo not given)
Reply: -59.5

Query: Follow-up entry: COc1ccc(-c2nc3ccc(Cc4ccc5nc(-c6ccc(OC)cc6)[nH]c5c4)cc3[nH]2)cc1
Reply: -13.1

Query: Follow-up entry: Nc1cccc(S(=O)(=O)c2cccc(N)c2)c1
Reply: 115

Query: Follow-up entry: Cc1ccc(-c2nc3ccccc3c(=O)n2/N=C/c2cccc3ccccc23)cc1
Reply: 68.6

Query: Follow-up entry: CNC(=O)c1cc(Oc2ccc(NC(=O)c3[nH]c(SC)nc3-c3ccc(F)cc3)cc2)ccn1
Reply: -7.31
